Values from ChEMBL document CHEMBL2390903

Task for the reader: assign each of the following compounds its reported MIC.
- Tested on: Mycobacterium tuberculosis
- assay explanation: Antitubercular activity against rifampicin-resistant Mycobacterium tuberculosis assessed as growth inhibition after 2 to 3 weeks by broth microdilution method
- Type: functional
Respond with the bare value in µg/mL.

input: Could you tell me which MIC is on file for Cc1ccccc1-c1cc(CN2CCN(c3ccc(N4C[C@H](Cn5cc(-c6cncn6C)nn5)OC4=O)cc3F)CC2)c(C)n1-c1ccc(F)c(F)c1 ?
output: 8

input: Could you tell me which MIC is on file for Cc1ccc(-c2cc(CN3CCN(c4ccc(N5C[C@H](Cn6cc(-c7ccccn7)nn6)OC5=O)cc4F)CC3)c(C)n2-c2ccc(Cl)c(Cl)c2)cc1 ?
output: 4

input: Could you tell me which MIC is on file for CC(=O)NC[C@H]1CN(c2ccc(N3CCOCC3)c(F)c2)C(=O)O1 [LINEZOLID] ?
output: 2

input: Could you tell me which MIC is on file for Cc1c(CN2CCN(c3ccc(N4C[C@H](Cn5cc(-c6cncn6C)nn5)OC4=O)cc3F)CC2)cc(-c2ccc(F)cc2F)n1-c1ccc(F)cc1 ?
output: 8

input: Could you tell me which MIC is on file for CC(=O)NC[C@H]1CN(c2ccc(N3CCN(Cc4cc(-c5cccc(Cl)c5)n(-c5ccccc5F)c4C)CC3)c(F)c2)C(=O)O1 ?
output: 8

input: Could you tell me which MIC is on file for Cc1c(CN2CCN(c3ccc(N4C[C@H](Cn5cc(-c6ccccn6)nn5)OC4=O)cc3F)CC2)cc(-c2ccc(F)cc2F)n1-c1ccc(F)cc1 ?
output: 8

input: Could you tell me which MIC is on file for Cc1c(CN2CCN(c3ccc(N4C[C@H](Cn5cc(-c6cncn6C)nn5)OC4=O)cc3F)CC2)cc(-c2ccc(C(C)C)cc2)n1-c1ccc(F)cc1F ?
output: 8

input: Could you tell me which MIC is on file for Cc1ccccc1-c1cc(CN2CCN(c3ccc(N4C[C@H](Cn5cc(-c6cncn6C)nn5)OC4=O)cc3F)CC2)c(C)n1-c1ccc(F)cc1 ?
output: 4

input: Could you tell me which MIC is on file for Cc1ccccc1-c1cc(CN2CCN(c3ccc(N4C[C@H](Cn5cc(-c6ccccn6)nn5)OC4=O)cc3F)CC2)c(C)n1-c1ccc(F)c(F)c1 ?
output: 4

input: Could you tell me which MIC is on file for CC(=O)NC[C@H]1CN(c2ccc(N3CCN(Cc4cc(-c5ccc(C(C)C)cc5)n(-c5ccc(F)cc5F)c4C)CC3)c(F)c2)C(=O)O1 ?
output: 4

input: Could you tell me which MIC is on file for CC(=O)NC[C@H]1CN(c2ccc(N3CCN(Cc4cc(-c5ccc(F)cc5F)n(-c5cc(F)ccc5Br)c4C)CC3)c(F)c2)C(=O)O1 ?
output: 8

input: Could you tell me which MIC is on file for Cc1c(CN2CCN(c3ccc(N4C[C@H](Cn5cc(-c6ccccn6)nn5)OC4=O)cc3F)CC2)cc(-c2ccc(Cl)c(F)c2)n1-c1ccc(OC(F)(F)F)cc1 ?
output: 4
